- Experimental System: T1, human Gelatinase-A (human, UniProt P08253 110-660, limits assumed)
- T1 sequence (looked up): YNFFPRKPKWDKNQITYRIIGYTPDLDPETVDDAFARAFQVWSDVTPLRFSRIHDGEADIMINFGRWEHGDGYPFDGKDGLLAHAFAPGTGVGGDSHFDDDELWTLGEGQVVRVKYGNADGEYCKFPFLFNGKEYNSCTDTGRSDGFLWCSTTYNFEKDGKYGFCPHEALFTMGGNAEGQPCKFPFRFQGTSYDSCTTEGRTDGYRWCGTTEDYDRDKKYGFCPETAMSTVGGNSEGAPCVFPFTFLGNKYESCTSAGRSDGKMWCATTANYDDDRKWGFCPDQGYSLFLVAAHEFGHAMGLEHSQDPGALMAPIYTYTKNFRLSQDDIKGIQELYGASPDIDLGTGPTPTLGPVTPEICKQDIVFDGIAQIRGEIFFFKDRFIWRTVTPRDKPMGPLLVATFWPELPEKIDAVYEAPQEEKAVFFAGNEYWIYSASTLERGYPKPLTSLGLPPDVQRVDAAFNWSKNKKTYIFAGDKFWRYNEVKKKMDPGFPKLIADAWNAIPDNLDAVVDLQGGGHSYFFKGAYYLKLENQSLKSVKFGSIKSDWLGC
- Measurement Notes: cell-based or functional assay
*1 amine or outer side, *2 acyl side, *3 side chain or, on linkers, in order; H or OH if unused. [ ]: non-standard residue; d: D form. The star is where a group is joined. Dnp = O=[N+]([O-])c1ccc(*)c([N+](=O)[O-])c1; C(Me) = CSC[C@H](N[*:1])C(=O)[*:2]
Readout Type: Selectivity v. Coll-3 (unitless)

| Binder | Value Unit | Test Value |
| --- | --- | --- |
| Dnp-GPLGLHG[C(Me)]-NH2 (SMILES CSC[C@H](NC(=O)CNC(=O)[C@H](Cc1c[nH]cn1)NC(=O)[C@H](CC(C)C)NC(=O)CNC(=O)[C@H](CC(C)C)NC(=O)[C@@H]1CCCN1C(=O)CNc1ccc([N+](=O)[O-])cc1[N+](=O)[O-])C(N)=O) [Dnp-GPLGLHGC(Me)-NH2] | unitless | 16 |
| Dnp-GPAPLHV[C(Me)]-NH2 (SMILES CSC[C@H](NC(=O)[C@@H](NC(=O)[C@H](Cc1c[nH]cn1)NC(=O)[C@H](CC(C)C)NC(=O)[C@@H]1CCCN1C(=O)[C@H](C)NC(=O)[C@@H]1CCCN1C(=O)CNc1ccc([N+](=O)[O-])cc1[N+](=O)[O-])C(C)C)C(N)=O) [Dnp-GPAPLHVC(Me)-NH2] | unitless | 12 |
